- assay-system: T1, rhBMP-2 (His-tagged, refolded, E. coli-expressed) (human, UniProt P12643 283-396)
- T1 sequence: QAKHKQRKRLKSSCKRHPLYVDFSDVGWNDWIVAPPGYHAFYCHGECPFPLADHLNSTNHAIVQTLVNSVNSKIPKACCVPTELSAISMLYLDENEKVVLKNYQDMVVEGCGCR
- experiment: ELISA-like; fiber of 500 nM BA1 and 10% type I collagen (0.3 mg/mL); EMSA: 20 mM HEPES pH 7.4, 150 mM NaCl, 2 mM MgCl2, 2 mM CaCl2, 2 mM KCl, 37 C 1 h, 12% native PAGE at 4 C; ELONA: His-rhBMP-2 on HisSorb plate, biotinylated DNA 1 h at 37 C, PBST washes
- applied-conditions: protein: recombinant; tags: His tag (pET-15b NdeI/BamHI); chain copies: 2; label: biotin
property-label: Kd

# input Sample BA1 in collagen fiber (ssDNA) DNA: CGTACGGTCGACGCTAGCAAAACAAAAAAAAATAAAAAAAAAAAGACTAAAGACACGTGGAGCTCGGATCC — what was its Kd?
# output ~3.5 nM
